These measurements were taken from patent US20120015961A1.

target or system: CYP2C19 (Homo sapiens)
Construct: Enzyme, pooled human hepatic microsome 0.2 mg protein/mL; from tissue; host or cells: pooled human hepatic microsomes
Sequence (P33261 whole entry): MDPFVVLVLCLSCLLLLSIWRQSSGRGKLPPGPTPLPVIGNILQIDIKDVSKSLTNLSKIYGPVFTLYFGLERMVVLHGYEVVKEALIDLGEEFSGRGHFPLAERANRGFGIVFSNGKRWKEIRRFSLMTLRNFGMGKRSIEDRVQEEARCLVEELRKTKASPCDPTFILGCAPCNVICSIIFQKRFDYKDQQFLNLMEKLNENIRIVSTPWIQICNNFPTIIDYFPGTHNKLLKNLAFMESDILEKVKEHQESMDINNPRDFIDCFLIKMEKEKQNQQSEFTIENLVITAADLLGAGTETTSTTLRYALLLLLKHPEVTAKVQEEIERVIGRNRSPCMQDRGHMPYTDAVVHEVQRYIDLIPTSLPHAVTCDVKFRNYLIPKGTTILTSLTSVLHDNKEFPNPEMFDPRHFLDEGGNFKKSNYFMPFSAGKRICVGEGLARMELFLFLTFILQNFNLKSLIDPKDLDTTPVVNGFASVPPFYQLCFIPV
method notes: CYP inhibition test (CYP2C19)
Format: in vitro ADME
test conditions: pooled human hepatic microsome, mephenyloin 4′-hydroxylation
reported property: IC50

Prompt: Need IC50 of N#Cc1ccc(C(=O)Nc2cccc(C/N=C(\N)OCCCO)c2)nc1 , thanks.
Completion: > 20 µM

====

# bioavailability per entry
method notes: BA test
Type: in vivo
test conditions: rat, plasma; SD rats, from AUCs of oral and intravenous administration
The answer is to be given in %; state only the numeric part.

{"columns": ["compound", "measure unit", "val"],
 "data": [
  ["CO/C(N)=N/C(c1ccccc1)c1cccc(NC(=O)c2ccc(C#N)cn2)c1 (centres unmarked) [Compound 48]", "%", 87.2]
]}

Prompt: Need bioavailability of CO/C(N)=N\c1c(C)ccc2ccc(NC(=O)c3ccc(C#N)cn3)cc12 [Compound 77] , thanks.
Completion: 75
